The origin of these recorded values is the supplement of paper PMC10567573.

B1: C8orf76 (parent)
chain: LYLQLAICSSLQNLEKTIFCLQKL

- Variants of: B1
- Measurement protocol: protein stability index of a GFP-peptide fusion (GPS, HEK-293T) (PSI 1-6); higher = more stable;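 also: lentivirally expressed fusions sorted by FACS into six bins by GFP to DsRed ratio, PSI derived from sequencing read proportions per bin multiplied by bin number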
- Condition summary: c terminus: a fixed tail appended

>  <Variant string>
K16P

>  <protein stability index>
2.32

$$$$
>  <Variant string>
L3T

>  <protein stability index>
4.08

$$$$
>  <Variant string>
A6N

>  <protein stability index>
2.71

$$$$
>  <Variant string>
C20Y

>  <protein stability index>
2.18

$$$$
>  <Variant string>
L24P

>  <protein stability index>
4.07

$$$$
>  <Variant string>
K23N

>  <protein stability index>
2.11

$$$$
>  <Variant string>
I18W

>  <protein stability index>
3.03

$$$$
>  <Variant string>
L21F

>  <protein stability index>
3.62

$$$$
>  <Variant string>
K23W

>  <protein stability index>
3.62

$$$$
>  <Variant string>
Q12H

>  <protein stability index>
3.42

$$$$
>  <Variant string>
L1I

>  <protein stability index>
2.57

$$$$
>  <Variant string>
Y2I

>  <protein stability index>
3.14

$$$$
>  <Variant string>
C8P

>  <protein stability index>
2.57

$$$$
>  <Variant string>
Q4V

>  <protein stability index>
3.48

$$$$
>  <Variant string>
C20V

>  <protein stability index>
3.44

$$$$
>  <Variant string>
T17G

>  <protein stability index>
4.96

$$$$
>  <Variant string>
F19G

>  <protein stability index>
2.83

$$$$
>  <Variant string>
S9L

>  <protein stability index>
2.28

$$$$
>  <Variant string>
T17W

>  <protein stability index>
4.22

$$$$
>  <Variant string>
I18H

>  <protein stability index>
2.6

$$$$
>  <Variant string>
K16T

>  <protein stability index>
4.26

$$$$
>  <Variant string>
F19A

>  <protein stability index>
2.89

$$$$
>  <Variant string>
C20P

>  <protein stability index>
1.88

$$$$
>  <Variant string>
I18E

>  <protein stability index>
1.79

$$$$
>  <Variant string>
Y2T

>  <protein stability index>
2.08

$$$$
>  <Variant string>
S9N

>  <protein stability index>
4.23

$$$$
>  <Variant string>
L14N

>  <protein stability index>
2.84

$$$$
>  <Variant string>
L5V

>  <protein stability index>
2.05

$$$$
>  <Variant string>
L3P

>  <protein stability index>
1.81

$$$$
>  <Variant string>
Q4T

>  <protein stability index>
2.97

$$$$
>  <Variant string>
L3D

>  <protein stability index>
2.73

$$$$
